Ref: patent US7265155B2

# EXPERIMENT: Rotarod motor impairment (toxicity) in the Frings mouse
# Type: in vivo
# MEASUREMENT SETUP: Frings, mouse, in vivo, ip; 15 minutes; read-out: TD50 for rotarod impairment
OUTCOME MEASURE: TD50 at 15 min (mg/kg)

[
  {
    "COMPOUND": "CC(C)CC(N)=O [Isovaleramide, isovaleramide]",
    "MEASUREMENT UNITS": "mg/kg",
    "REPORTED VALUE": 531
  }
]

====

# EXPERIMENT: Rotarod motor impairment (toxicity) in the Frings mouse
# Assay type: in vivo
# MEASUREMENT SETUP: Frings, mouse, in vivo; oral; read-out: TD50
OUTCOME MEASURE: TD50 at 15 min (mg/kg)

[
  {
    "COMPOUND": "CC(C)CC(N)=O [Isovaleramide, isovaleramide]",
    "REPORTED VALUE": 1010
  }
]
